Source listed as patent US5961892A.

# assay_method_text: Photochromic response of test squares on optical bench (sensitivity, saturation optical density, bleach rate)
# Type: physicochemical
# test_context: UV exposure continued for 15 minutes; 72° F. (22.2° C.)
Assign ΔOD@ Saturation to each entry below.

Note to self: ΔOD@ Saturation recorded for COC(=O)c1c2c(c3ccccc3c1C)OC(c1ccccc1)(c1ccccc1)C=C2 [CE3, reference compound] was 1.17

Note to self: ΔOD@ Saturation recorded for COC(=O)c1c2c(c3ccccc3c1-c1ccccc1)OC(c1ccccc1)(c1ccccc1)C=C2 [CE2, reference compound] was 0.80

Note to self: ΔOD@ Saturation recorded for COCCOCCOCCOC(=O)c1c2c(c3ccccc3c1-c1ccccc1)OC(c1ccccc1)(c1ccccc1)C=C2 [Example 4] was 0.67

Note to self: ΔOD@ Saturation recorded for COC(=O)c1c2c(c3ccccc3c1OC)OC(c1ccc(OC)cc1)(c1ccc(OC)cc1)C=C2 [CE1, reference compound] was 0.77

Note to self: ΔOD@ Saturation recorded for COCCOCCOC(=O)c1c2c(c3ccccc3c1-c1ccccc1)OC(c1ccccc1)(c1ccccc1)C=C2 [Example 2] was 0.67

Note to self: ΔOD@ Saturation recorded for COCCOCCOCCOC(=O)c1c2c(c3ccccc3c1C)OC(c1ccccc1)(c1ccccc1)C=C2 [Example 3] was 0.86

----------
# assay_method_text: Photochromic response of test squares on optical bench (sensitivity, saturation optical density, bleach rate)
# Assay type: physicochemical
# test_context: first five (5) seconds of UV exposure, expressed per minute; 72° F. (22.2° C.); 0.15 to 0.20 mW/cm2
Assign ΔOD/MIN Sensitivity to each entry below.

Note to self: ΔOD/MIN Sensitivity recorded for COC(=O)c1c2c(c3ccccc3c1OC)OC(c1ccc(OC)cc1)(c1ccc(OC)cc1)C=C2 [CE1, reference compound] was 0.29 ΔOD/MIN

Note to self: ΔOD/MIN Sensitivity recorded for COCCOCCOCCOC(=O)c1c2c(c3ccccc3c1-c1ccccc1)OC(c1ccccc1)(c1ccccc1)C=C2 [Example 4] was 0.28 ΔOD/MIN

Note to self: ΔOD/MIN Sensitivity recorded for COC(=O)c1c2c(c3ccccc3c1C)OC(c1ccccc1)(c1ccccc1)C=C2 [CE3, reference compound] was 0.23 ΔOD/MIN

Note to self: ΔOD/MIN Sensitivity recorded for COC(=O)c1c2c(c3ccccc3c1-c1ccccc1)OC(c1ccccc1)(c1ccccc1)C=C2 [CE2, reference compound] was 0.28 ΔOD/MIN

Note to self: ΔOD/MIN Sensitivity recorded for COCCOCCOC(=O)c1c2c(c3ccccc3c1-c1ccccc1)OC(c1ccccc1)(c1ccccc1)C=C2 [Example 2] was 0.26 ΔOD/MIN

Note to self: ΔOD/MIN Sensitivity recorded for COCCOCCOCCOC(=O)c1c2c(c3ccccc3c1C)OC(c1ccccc1)(c1ccccc1)C=C2 [Example 3] was 0.24 ΔOD/MIN

----------
# assay_method_text: UV-Visible absorption (lambda max) of photochromic test square polymerizates in Varian Cary 3 UV-Visible spectrophotometer
# Assay type: physicochemical
# test_context: wavelength in the ultraviolet range closest to the visible spectrum at which absorption occurs; test square of BPA 2EO DMA/poly(ethylene glycol) 600 dimethacrylate, 1.5×10-3 molal
Assign (λ) max (UV) to each entry below.
A number alone suffices; assume nm.

Note to self: (λ) max (UV) recorded for COC(=O)c1c2c(c3ccccc3c1C)OC(c1ccccc1)(c1ccccc1)C=C2 [CE3, reference compound] was 349

Note to self: (λ) max (UV) recorded for COCCOCCOC(=O)c1c2c(c3ccccc3c1-c1ccccc1)OC(c1ccccc1)(c1ccccc1)C=C2 [Example 2] was 348

Note to self: (λ) max (UV) recorded for COCCOCCOCCOC(=O)c1c2c(c3ccccc3c1C)OC(c1ccccc1)(c1ccccc1)C=C2 [Example 3] was 349

Note to self: (λ) max (UV) recorded for COC(=O)c1c2c(c3ccccc3c1OC)OC(c1ccc(OC)cc1)(c1ccc(OC)cc1)C=C2 [CE1, reference compound] was 353

Note to self: (λ) max (UV) recorded for COC(=O)c1c2c(c3ccccc3c1-c1ccccc1)OC(c1ccccc1)(c1ccccc1)C=C2 [CE2, reference compound] was 348

Note to self: (λ) max (UV) recorded for COCCOCCOCCOC(=O)c1c2c(c3ccccc3c1-c1ccccc1)OC(c1ccccc1)(c1ccccc1)C=C2 [Example 4] was 348
